- Test system: AncSZ
- assay_procedure: phosphorylation enrichment, bacterial display (enrichment ratio); higher = better substrate or ligand; peptides without Tyr show the background;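 also: 11-residue human phosphosite peptides and single-mutation variants displayed on the E. coli surface, counted by deep sequencing, each peptide's frequency after selection divided by its frequency in the unselected input library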;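 also: frequency after pTyr selection over input frequency; kinase dosed for 20-30% of maximal phosphorylation in three min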
phosphorylation enrichment values, listed per item
measure: phosphorylation enrichment

* CTTIPYNYMCN [TP53_Y234_H233P] | 1.18
* LTPVKYLLSAT [GSDMC_Y26] | 0.515
* YLTSSYINIST [IL23R_Y178] | 0.978

----------
- System: c-Src
- assay_procedure: phosphorylation enrichment, bacterial display (enrichment ratio); higher = better substrate or ligand; peptides without Tyr show the background
Outcome label depends on phosphorylation enrichment relative to 1: at/above gives yes (1), below gives no (0).

- MDFRSYPREFG [RBM10_Y44_YF]: no (0)
- FGMQLYQNFMH [GRB14_Y347_YF]: yes (1)
- RAVLLYEYVGK [NATD1_Y45]: yes (1)
- YNNYGYGNDGF [HNRNPH3_Y161]: no (0)
- ITVPAYFNDSQ [HSPA9_Y196]: no (0)
- RREWFYEVIIV [BACE1_Y260_YF]: no (0)
- ANAYIYDVQLP [L1CAM_Y420_V421D]: yes (1)
- IRFPPYTDWNQ [ALDH3B2_Y365_H361R_YF]: no (0)
- RKELFYKADGE [SERPINC1_Y272]: no (0)
- IKNSGYISQFL [EIF2AK3_Y585_R588Q_YF]: no (0)
- GSERDYTFDEL [EIF2S2_Y174_E177D_YF]: no (0)
- PLKALYLQQRP [ATM_Y2969]: no (0)
- AELVQYYMEHH [PTPN11_Y80]: no (0)
- LHSEAYLKFIE [PBRM1_Y1610_YF]: no (0)
- VHKEGYNKLNQ [ZNF676_Y98]: no (0)
- DAICYYRMENA [NPHS2_Y195]: yes (1)
- IGEGTYGQVFK [CDK13_Y716_YF]: yes (1)
- TVQVAYYTMMM [SPATA17_Y83]: yes (1)
- SVTCTYTPALN [TP53_Y126_S127T]: no (0)
- YGSSSYGGAGG [RPA2_Y14]: no (0)
- KELAKYYKLHH [AK7_Y390_N389K]: no (0)
- LANNEYYFQVC: yes (1)
- ATGLIYIGSHD [AASDH_Y870_T865A]: no (0)
- HRLSTYTKMLF [CHST8_Y251]: no (0)
- MFCAGYDTKQE [F10_Y407]: no (0)
- MSRNLYSGDFF [DDR2_Y736_YF]: yes (1)
- ATDLAYYLVCK [ASL_Y375_R379C]: yes (1)
- DTKPAYQNLRQ [BOD1_Y82]: no (0)
- FHLLPYTVRAM [PARS2_Y93_YF]: no (0)
- RTLTHYKSAVK [ASNS_Y555]: no (0)
- LASLIYNFVLF [AQP6_Y231]: yes (1)
- NAGDFYDLFGG [PTPN11_Y63_T59A_YF]: yes (1)
- QAPPIYLDVLG [NTRK1_Y791_V790I]: yes (1)
- YTHSDYQYSQR [PKP2_Y166]: no (0)
- FARNCYVAGQF [G6PD_Y107_S106C_YF]: no (0)
- AGNPAYRSFSN [IL4R_Y497]: no (0)

Cited source: the supplement of paper PMC10065799
